target: recombinant human EP-2 receptor (Homo sapiens); construct: stably transfected with full length cDNA encoding human Prostaglandin E2; experiment: In vitro antagonist potency against recombinant human prostaglandin E2 (EP-2) receptor in CHO cells (cAMP); conditions: CHO cells expressing recombinant human EP-2 receptor, stimulated with PGE2 5 nM; cAMP readout; Ki from IC50 by Cheng-Prusoff; read-out: EP2 Ki
Sequence (P43116 whole entry): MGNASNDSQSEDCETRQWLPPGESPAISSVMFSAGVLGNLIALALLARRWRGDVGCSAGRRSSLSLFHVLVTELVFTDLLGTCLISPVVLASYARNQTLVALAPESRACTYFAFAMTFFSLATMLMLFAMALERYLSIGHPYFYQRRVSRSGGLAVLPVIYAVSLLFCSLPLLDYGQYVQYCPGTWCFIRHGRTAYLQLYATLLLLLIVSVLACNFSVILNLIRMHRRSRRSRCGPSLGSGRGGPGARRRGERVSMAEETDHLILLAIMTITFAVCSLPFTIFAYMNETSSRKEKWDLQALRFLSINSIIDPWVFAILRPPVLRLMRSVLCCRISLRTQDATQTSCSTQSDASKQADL
Examples of compounds with documented Ki follow.
Give the value in nM but do not write nM after it.

Please review the following examples before continuing.
Query string: Value lookup for Ki; key = COc1ccc(C(=O)N2CC(Cn3nnc(-c4ccc(OC)c(OC)c4)n3)(C(=O)O)C2)cc1
Result string: 25.2

Query string: Which value of Ki has been reported for COc1ccc(-c2nnn(CC3(C(=O)O)CN(C(=O)c4ccc(F)cc4)C3)n2)cc1 in the records?
Result string: 10.8

Query string: Entry under review: O=C(Nc1cccc(F)c1)N1CC(Cn2nnc(-c3ccc(Cl)s3)n2)(C(=O)O)C1 . Reported Ki?
Result string: 519

Query string: Fill in the blank: the reported Ki of O=C(c1ccc(F)cc1)N1CC(Cn2nnc(-c3ccc(OC(F)F)cc3)n2)(C(=O)O)C1 is ____.
Result string: 14.7

Query string: Which Ki is reported for this compound? O=C(c1ccc(Cl)cc1)N1CC(Cn2nnc(-c3c(F)cccc3F)n2)(C(=O)O)C1
Result string: 7.47

Query string: Give its Ki value. Item: CCC(=O)Nc1ccc(-c2nnn(CC3(C(=O)O)CN(C(=O)c4ccc(Cl)cc4)C3)n2)cc1
Result string: 0.816

Query string: Which Ki value belongs to O=C(c1ccc(F)cc1)N1CC(Cn2nnc(-c3c(F)cccc3F)n2)(C(=O)O)C1 ?
Result string: 262

Query string: Tell me the measured Ki of O=C(Nc1cccc(Cl)c1)N1CC(Cn2nnc(-c3cccc(F)c3)n2)(C(=O)O)C1 , please.
Result string: 386

More entries:
Query string: Endpoint output: Ki of COc1cc(OC)cc(C(=O)N2CC(Cn3nnc(-c4c(F)cccc4F)n3)(C(=O)O)C2)c1 . Value?
Result string: 230

Query string: Please report the recorded Ki for O=C(c1ccc(Cl)cc1)N1CC(Cn2nnc(-c3ccc(C(F)(F)F)cc3)n2)(C(=O)O)C1 .
Result string: 1.64

Query string: Please look up its Ki: O=C(c1ccccc1)N1CC(Cn2nnc(-c3cccc(F)c3)n2)(C(=O)O)C1
Result string: 152
